- Tested on: MOLM-13
- protocol.summary: Antiproliferative activity against human MOLM-13 cells assessed as inhibition of cell growth incubated for 72 hrs by MTS assay
- Format: functional, cell-based
- stated.conditions: MOLM-13, 72 h
pIC50: −log10 of the molar value.

| record.smiles | target.or.test.system | pIC50 |
| --- | --- | --- |
| Cc1cc(Nc2cc3c(cn2)ncc(=O)n3-c2ccc(N)cc2)ncc1N1CCN(C(C)C)CC1 | MOLM-13 | 6.88 |
| CCN1CCN(c2cnc(Nc3cc4c(cn3)ncc(=O)n4-c3ccc(N)cc3)cc2C)CC1 | MOLM-13 | 6.64 |
| Cc1cc(Nc2cc3c(cn2)ncc(=O)n3-c2ccc(N)cc2)ncc1N1CCN(C2CC2)CC1 | MOLM-13 | 6.44 |
| Cc1cc(Nc2cc3c(cn2)ncc(=O)n3-c2ccc(N)cc2)ncc1N1CCSCC1 | MOLM-13 | 6.06 |
| Cc1cc(Nc2cc3c(cn2)ncc(=O)n3-c2ccc(N)cc2)ncc1N1CCC(N)CC1 | MOLM-13 | 6.19 |
| Cc1cc(Nc2cc3c(cn2)ncc(=O)n3-c2ccc(N)cc2)ncc1N1CCNCC1 | MOLM-13 | 6.36 |
| Cc1cc(Nc2cc3c(cn2)ncc(=O)n3-c2ccc(N)cc2)ncc1N1CCN(C)CC1 | MOLM-13 | 6.60 |
| Cc1cc(Nc2cc3c(cn2)ncc(=O)n3-c2ccc(N)cc2)ncc1N1C[C@@H](C)N[C@@H](C)C1 | MOLM-13 | 6.72 |
| Cc1cc(Nc2cc3c(cn2)ncc(=O)n3-c2ccc(N)cc2)ncc1N1CCN(S(C)(=O)=O)CC1 | MOLM-13 | 6.16 |

###

- target.or.test.system: Receptor-type tyrosine-protein kinase FLT3 (Homo sapiens, UniProt P36888)
- Sequence (P36888 whole entry): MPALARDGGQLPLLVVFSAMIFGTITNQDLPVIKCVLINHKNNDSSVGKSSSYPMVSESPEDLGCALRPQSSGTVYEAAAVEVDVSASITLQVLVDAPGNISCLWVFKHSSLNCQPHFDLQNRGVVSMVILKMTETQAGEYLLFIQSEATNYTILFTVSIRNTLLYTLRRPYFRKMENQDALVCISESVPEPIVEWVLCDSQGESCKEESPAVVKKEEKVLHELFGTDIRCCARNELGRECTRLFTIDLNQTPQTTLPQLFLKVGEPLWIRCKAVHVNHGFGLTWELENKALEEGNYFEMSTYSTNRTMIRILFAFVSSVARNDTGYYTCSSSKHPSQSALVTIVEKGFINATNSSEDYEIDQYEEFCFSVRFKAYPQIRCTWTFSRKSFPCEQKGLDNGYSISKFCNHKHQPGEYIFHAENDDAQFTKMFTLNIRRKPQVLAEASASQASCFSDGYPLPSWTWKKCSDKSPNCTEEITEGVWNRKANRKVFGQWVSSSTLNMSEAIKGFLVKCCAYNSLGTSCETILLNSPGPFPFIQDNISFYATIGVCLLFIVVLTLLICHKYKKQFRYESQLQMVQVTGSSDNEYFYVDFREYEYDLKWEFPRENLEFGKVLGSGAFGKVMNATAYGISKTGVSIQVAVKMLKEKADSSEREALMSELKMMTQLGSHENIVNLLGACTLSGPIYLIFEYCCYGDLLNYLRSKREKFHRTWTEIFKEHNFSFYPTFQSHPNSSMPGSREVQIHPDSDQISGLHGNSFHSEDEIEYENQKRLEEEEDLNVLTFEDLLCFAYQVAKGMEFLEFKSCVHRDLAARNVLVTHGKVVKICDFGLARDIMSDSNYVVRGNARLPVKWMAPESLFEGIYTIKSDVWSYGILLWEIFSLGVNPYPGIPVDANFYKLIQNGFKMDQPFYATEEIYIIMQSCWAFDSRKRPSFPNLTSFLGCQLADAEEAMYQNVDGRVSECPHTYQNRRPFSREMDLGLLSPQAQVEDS
Entries and their measured IC50 follow.

| record.smiles | IC50 |
| --- | --- |
| CN1CCN(c2ccc(Nc3cc4c(cn3)ncc(=O)n4-c3ccc(N(C)C)cc3)nc2)CC1 | 747 nM |
| Cc1cc(Nc2cc3c(cn2)ncc(=O)n3-c2ccc(N)cc2)ncc1N1CCN(S(C)(=O)=O)CC1 | 122 nM |
| CC(=O)Nc1ccc(-n2c(=O)cnc3cnc(Nc4ccc(N5CCN(C)CC5)cc4)cc32)cc1 | 2720 nM |
| Cc1cc(Nc2cc3c(cn2)ncc(=O)n3-c2ccc(N)cc2)ncc1N1CCC(N)CC1 | 72 nM |
| Cc1cc(Nc2cc3c(cn2)ncc(=O)n3-c2ccc(N)cc2)ncc1N1C[C@@H](C)N[C@@H](C)C1 | 85 nM |
| Cc1cc(Nc2cc3c(cn2)ncc(=O)n3-c2ccc(N)cc2)ncc1N1CCN(C2CC2)CC1 | 103 nM |
| Cc1cc(Nc2cc3c(cn2)ncc(=O)n3-c2ccc(N)cc2)ncc1N1CCC(O)CC1 | 193 nM |
| Cc1cc(Nc2cc3c(cn2)ncc(=O)n3-c2ccc(N)cc2)ncc1N1CCN(C(C)C)CC1 | 62 nM |
| CN1CCN(c2ccc(Nc3cc4c(cn3)ncc(=O)n4-c3cccc(N)c3)nc2)CC1 | 915 nM |
